Listing of recorded dTm LRRK2(KW) [K] by entry.
- experimental-target: LRRK2^KW (Homo sapiens, UniProt Q5S007)
- Construct: LRRK2 R1847 to E2527; His6-Z-tag (TEV cleavable) (N, cleaved yes); host or cells: Sf9 insect cells (baculovirus)
- Sequence (Q5S007 1847-2527): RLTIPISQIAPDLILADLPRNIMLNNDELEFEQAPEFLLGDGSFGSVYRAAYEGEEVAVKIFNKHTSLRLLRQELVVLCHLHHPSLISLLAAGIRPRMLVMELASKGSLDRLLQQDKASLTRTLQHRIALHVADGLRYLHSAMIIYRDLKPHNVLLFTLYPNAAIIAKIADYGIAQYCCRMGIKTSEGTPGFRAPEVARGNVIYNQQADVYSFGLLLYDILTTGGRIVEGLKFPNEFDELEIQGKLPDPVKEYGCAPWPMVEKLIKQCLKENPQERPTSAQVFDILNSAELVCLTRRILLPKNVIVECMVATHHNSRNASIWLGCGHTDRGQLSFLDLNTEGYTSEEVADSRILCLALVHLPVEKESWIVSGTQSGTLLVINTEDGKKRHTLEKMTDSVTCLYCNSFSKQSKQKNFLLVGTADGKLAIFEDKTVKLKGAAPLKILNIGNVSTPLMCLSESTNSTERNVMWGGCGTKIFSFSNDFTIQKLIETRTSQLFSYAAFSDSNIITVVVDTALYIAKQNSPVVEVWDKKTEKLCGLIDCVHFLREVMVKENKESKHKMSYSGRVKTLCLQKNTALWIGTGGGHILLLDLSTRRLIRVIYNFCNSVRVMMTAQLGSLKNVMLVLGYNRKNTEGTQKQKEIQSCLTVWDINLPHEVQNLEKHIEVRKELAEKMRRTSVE
- method-description: DSF thermal stabilization of LRRK2^KW
- Type: binding
- assay-setup: screen of 31 type-II inhibitors, Table S1
Hi! Could you send only the number? It should be in K, unit omitted.

Illustrative cases are given below, each with its answer.
compound: Cc1ccc(C(=O)Nc2cccc(C(F)(F)F)c2)cc1Nc1nc(-c2cccnc2)nc2c1cnn2C [NVP-BHG712, reference compound]
unit-abbreviation: K
dTm LRRK2(KW) [K]: -0.5
--
compound: CCN1CCN(Cc2ccc(NC(=O)c3ccc(C)c(NC(=O)c4cncc(-c5cccs5)c4)c3)cc2C(F)(F)F)CC1 [ALW-II-41-27, reference compound]
unit-abbreviation: K
dTm LRRK2(KW) [K]: -0.5

Field: next compound
## Task Query (compound): COc1cc2nccc(Oc3ccc(NC(=O)C4(C(=O)Nc5ccc(F)cc5)CC4)cc3)c2cc1OC [Cabozantinib, reference compound] ; field requested: dTm LRRK2(KW) [K]
## Result 7.5
